Tested on: SiHa (cervical cancer cell line)
Assay: In vitro cytotoxicity, MTT assay, SiHa
Format: cell-based
Settings: Homo sapiens, MTT, 48 h, cervical cancer, read-out: IC50 SiHa
Reported IC50 values for the following compounds.
observed_property: IC50 (µM)

- O=C(/C=C/c1cn(-c2ccccc2)nc1-c1ccc(OCc2ccccc2)cc1)c1ccc(Cl)c(Cl)c1: 11.7
- COc1ccc(C(=O)/C=C/c2cn(-c3ccccc3)nc2-c2ccc(OCc3ccccc3)cc2)cc1: 5.65
- O=C(/C=C/c1cn(-c2ccccc2)nc1-c1ccc(OCc2ccccc2)cc1)c1ccc(Cl)cc1Cl: 6.46
- O=C(/C=C/c1cn(-c2ccccc2)nc1-c1ccc(OCc2ccccc2)cc1)c1cccc(O)c1: 4.85
- O=C(/C=C/c1cn(-c2ccccc2)nc1-c1ccc(OCc2ccccc2)cc1)c1ccc(O)cc1O: 3.6
- COc1ccc(C(=O)/C=C/c2cn(-c3ccccc3)nc2-c2ccc(OCc3ccccc3)cc2)c(OC)c1: 4.98
